# assayed_target: GIPR (CHO-K1-hGIPR cells) (Homo sapiens, UniProt P48546)
# Construct: host or cells: CHO-K1
# Sequence (P48546 22-466): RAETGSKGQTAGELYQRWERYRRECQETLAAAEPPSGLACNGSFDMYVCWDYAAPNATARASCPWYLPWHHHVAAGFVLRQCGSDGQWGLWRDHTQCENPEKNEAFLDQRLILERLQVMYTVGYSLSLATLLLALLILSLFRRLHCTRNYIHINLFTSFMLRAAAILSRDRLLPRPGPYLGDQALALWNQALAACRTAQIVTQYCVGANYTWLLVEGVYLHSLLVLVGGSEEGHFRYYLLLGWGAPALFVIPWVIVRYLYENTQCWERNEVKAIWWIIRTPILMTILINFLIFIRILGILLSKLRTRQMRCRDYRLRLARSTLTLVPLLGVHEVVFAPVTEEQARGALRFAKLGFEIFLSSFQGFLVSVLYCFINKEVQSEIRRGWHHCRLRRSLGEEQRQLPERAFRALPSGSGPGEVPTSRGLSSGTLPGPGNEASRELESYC
# assay: FACS binding assay
# condition_context: competition with 20 nM GIP-057, 4° C. for 1 hour, read-out: pIC50 Category (converted)
*1 amine or outer side, *2 acyl side, *3 side chain or, on linkers, in order; H or OH if unused. Where a SMILES comes first, the peptide text is derived from it. Bridges are numbered along the chain shown (N, C = ends). [ ]: non-standard residue; d: D form. The star is where a group is joined. ξ: configuration not given here. X3 = O=C(O)CN1CCN(CC(=O)O)CCN(CC(=O)NCCCOCCOCCOCCCN*)CCN(CC(=O)O)CC1; Trp(5-Cl) = N[C@@H](Cc1c[nH]c2ccc(Cl)cc12)C(=O)O; Pyridine(2,6-diCH2) = c1cc(C[*:1])nc(C[*:2])c1; Phe(2-Cl) = N[C@@H](Cc1ccccc1Cl)C(=O)O; X7 = c1cc(CSCCN[*:2])cc(C[*:1])c1; Hyp = O=C(O)[C@@H]1C[C@@H](O)CN1; Suc = O=C(CCC(=O)[*:2])[*:1]; Thp = NC1(C(=O)O)CCOCC1; Aib = CC(C)(N)C(=O)O; ξP = O=C(O)C1CCCN1
readout_name: IC50

GET /values?item= CC[C@H](C)[C@@H]1NC(=O)[C@@H](NC(=O)[C@H](Cc2c[nH]c3ccccc23)NC(=O)[C@H](CC(=O)O)NC(=O)[C@@H](CC(C)C)NC(=O)[C@H](CCC(=O)O)NC(=O)C2CCCN2C(=O)[C@H](Cc2c[nH]c3ccc(Cl)cc23)NC(=O)CCC(=O)NCCCOCCOCCOCCCNC(=O)CN2CCN(CC(=O)O)CCN(CC(=O)O)CCN(CC(=O)O)CC2)CSCc2cccc(c2)CSCCNC(=O)C(C)(C)NC(=O)[C@H](CC(C)C)NC1=O (stereo partly drawn) [GIP-306] ({X3-Suc}-[Trp(5-Cl)][ξP]E[dL]DWCIL[Aib]; linker 7-C via X7) &system= GIPR (CHO-K1-hGIPR cells) (Homo sapiens, UniProt P48546) returns IC50: > 1000 nM

Kindly note: GIPR (CHO-K1-hGIPR cells) (Homo sapiens, UniProt P48546), CC[C@H](C)[C@@H]1NC(=O)[C@H](CC(C)C)NC(=O)C2(CCOCC2)NC(=O)[C@@H](NC(=O)[C@@H](CC(C)C)NC(=O)[C@H](CCC(=O)O)NC(=O)[C@@H]2C[C@@H](O)CN2C(=O)[C@H](Cc2ccccc2Cl)NC(=O)[C@H](Cc2c[nH]c3ccccc23)NC(=O)[C@H](CC(=O)O)NC(C)=O)CSCc2cccc(n2)CSC[C@@H](C(N)=O)NC1=O [GIP-349] (Ac-DW[Phe(2-Cl)][Hyp]E[dL]C[Thp]LIC-NH2; linker 7-11 via Pyridine(2,6-diCH2)) , IC50 value reported: > 1000 nM

These entries and their values trace back to patent US20250296971A1.
